System: HCT-116
Experiment: MTT cell viability assay, HCT-116
Assay type: cell-based
Conditions: Homo sapiens, Colon, 72 hours exposure
Method: After 72 hours exposure, the viability of the cells was determined by the rate of conversion of the formazan salt measuring the optical density (OD) at 570 nm (MTT assay).
Recorded endpoint: IC50 (µM)
Give bare numbers, in µM.

Please look up its IC50: O[C@H](c1cc(C(F)(F)F)nc2c(C(F)(F)F)cccc12)[C@@H]1CCCCN1 (racemic) [(+/−) Mefloquine] 6

====

Test system: 10C9
Assay: MTT cell viability assay, 10C9
Format: cell-based
Settings: Lymphoma, 72 hours exposure
Recorded endpoint: IC50 (µM)
Give bare numbers, in µM.

Please tell me: IC50 of O[C@H](c1cc(C(F)(F)F)nc2c(C(F)(F)F)cccc12)[C@@H]1CCCCN1 (racemic) [(+/−) Mefloquine] , system 10C9? 9
